Tested on: HeLa Kyoto
testMethodNotes: solubility change mitosis vs G1/S (difference of NP-40 vs SDS log2 ratios) (log2 ratio difference); higher = more soluble in mitosis
Mark MET for reported solubility change mitosis (log2) of -0.09 or greater; mark NOT MET for anything smaller.

# bool: solubility change mitosis (log2) of MGLETEKADVQLFMDDDSYSHHSGLEYADPEKFADSDQDRDPHRLNSHLKLGFEDVIAEPVTTHSFDKVWICSHALFEISKYVMYKFLTVFLAIPLAFIAGILFATLSCLHIWILMPFVKTCLMVLPSVQTIWKSVTDVIIAPLCTSVGRCFSSVSLQLSQD [CAV2] >= -0.09 MET

Decide: solubility change mitosis (log2) of MALASVLERPLPVNQRGFFGLGGRADLLDLGPGSLSDGLSLAAPGWGVPEEPGIEMLHGTTTLAFKFRHGVIVAADSRATAGAYIASQTVKKVIEINPYLLGTMAGGAADCSFWERLLARQCRIYELRNKERISVAAASKLLANMVYQYKGMGLSMGTMICGWDKRGPGLYYVDSEGNRISGATFSVGSGSVYAYGVMDRGYSYDLEVEQAYDLARRAIYQATYRDAYSGGAVNLYHVREDGWIRVSSDNVADLHEKYSGSTP [PSMB5] >= -0.09? NOT MET

Tell me whether solubility change mitosis (log2) is at least -0.09 here: MANSGCKDVTGPDEESFLYFAYGSNLLTERIHLRNPSAAFFCVARLQDFKLDFGNSQGKTSQTWHGGIATIFQSPGDEVWGVVWKMNKSNLNSLDEQEGVKSGMYVVIEVKVATQEGKEITCRSYLMTNYESAPPSPQYKKIICMGAKENGLPLEYQEKLKAIEPNDYTGKVSEEIEDIIKKGETQTL [GGCT] NOT MET

Tell me whether solubility change mitosis (log2) is at least -0.09 here: MGPRARPALLLLMLLQTAVLQGRLLRSHSLHYLFMGASEQDLGLSLFEALGYVDDQLFVFYDHESRRVEPRTPWVSSRISSQMWLQLSQSLKGWDHMFTVDFWTIMENHNHSKESHTLQVILGCEMQEDNSTEGYWKYGYDGQDHLEFCPDTLDWRAAEPRAWPTKLEWERHKIRARQNRAYLERDCPAQLQQLLELGRGVLDQQVPPLVKVTHHVTSSVTTLRCRALNYYPQNITMKWLKDKQPMDAKEFEPKDVLPNGDGTYQGWITLAVPPGEEQRYTCQVEHPGLDQPLIVIWEPSPSGTLVIGVISGIAVFVVILFIGILFIILRKRQGSRGAMGHYVLAERE [HFE] MET

====

Tested on: HeLa Kyoto
testMethodNotes: melting temperature (median over replicates), in situ; higher = more thermally stable
measurementSetup: cell cycle stage: G1/S
So I've got a bunch of substances here, and I need their melting temperature values.
Your answer should be a plain number; it is taken to be in °C.

Give melting temperature (HeLa Kyoto) of the following substance: `HDGFRP2` 54.3

HeLa Kyoto / melting temperature / MGVQPPNFSWVLPGRLAGLALPRLPAHYQFLLDLGVRHLVSLTERGPPHSDSCPGLTLHRLRIPDFCPPAPDQIDRFVQIVDEANARGEAVGVHCALGFGRTGTMLACYLVKERGLAAGDAIAEIRRLRPGSIETYEQEKAVFQFYQRTK [DUSP23] : value? 52.5

// map MAAAAAAAVAGVGRGGGGAEPRQERSRARGWAGVERSEGRRMEPGEELEEEGSPGGREDGFTAEHLAAEAMAADMDPWLVFDARTTPATELDAWLAKYPPSQVTRYGDPGSPNSEPVGWIAVYGQGYSPNSGDVQGLQAAWEALQTSGRPITPGTLRQLAITHHVLSGKWLMHLAPGFKLDHAWAGIARAVVEGQLQVAKVSPRAKEGGRQVICVYTDDFTDRLGVLEADSAIRAAGIKCLLTYKPDVYTYLGIYRANRWHLCPTLYESRFQLGGSARGSRVLDRANNVELT [C11ORF68] to recorded melting temperature (system: HeLa Kyoto) 51.6

State its melting temperature on HeLa Kyoto: MAILFAVVARGTTILAKHAWCGGNFLEVTEQILAKIPSENNKLTYSHGNYLFHYICQDRIVYLCITDDDFERSRAFNFLNEIKKRFQTTYGSRAQTALPYAMNSEFSSVLAAQLKHHSENKGLDKVMETQAQVDELKGIMVRNIDLVAQRGERLELLIDKTENLVDSSVTFKTTSRNLARAMCMKNLKLTIIIIIVSIVFIYIIVSPLCGGFTWPSCVKK [VAMP7] 54.4
